Origin of measurements: patent US20220064329A1

Hi there, I'd appreciate the recorded AT inhibition (kinh %) for every entry that follows.
Biological target: T1, recombinant human activated Factor VII (FVIIa) (human, UniProt P08709 61-212; P08709 213-466, Gla domain: ten glutamate residues may be gamma-carboxylated)
T1 sequence 1: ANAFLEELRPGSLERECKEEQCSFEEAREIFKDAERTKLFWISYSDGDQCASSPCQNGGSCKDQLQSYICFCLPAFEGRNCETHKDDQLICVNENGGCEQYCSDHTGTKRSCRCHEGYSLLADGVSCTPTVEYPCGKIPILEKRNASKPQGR
T1 sequence 2: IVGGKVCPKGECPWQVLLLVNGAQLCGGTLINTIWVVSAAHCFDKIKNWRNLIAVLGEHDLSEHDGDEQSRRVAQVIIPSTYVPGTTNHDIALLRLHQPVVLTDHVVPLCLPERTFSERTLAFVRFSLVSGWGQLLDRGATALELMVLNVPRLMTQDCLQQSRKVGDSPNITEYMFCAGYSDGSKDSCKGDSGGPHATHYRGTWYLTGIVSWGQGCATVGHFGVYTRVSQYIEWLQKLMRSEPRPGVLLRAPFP
Experiment: cell-based or functional assay
Give bare numbers, in %.

Exercise: For mAb0007 (antibody, V domains shown, fully murine, hybridoma-derived; also called 11F34) VH: DVQLQESGPGLVEPSQSLSLTCTVTGYSITSDCAWSWIRQFPGNKLEWMGYINYSGSTNYNPSLKSRISITRDTSKNQFFLRLNSVTGEDTATYYCARSVNYYGNSFAVGYWGQGTSVTVSS VL: DIVMTQSPATLSVTPGDRVSLSCRASQSISDYLHWYQHKSHESPRLLIKYVSQPISGIPSRFSGSGSGSEFTLSINSVEPEDVGVYYCQNGHSFPLTFGAGTKLELK , write its AT inhibition (kinh %).
Key: 121

// moving on: another record for AT inhibition (kinh %)
Exercise: For mAb0544 (antibody, V domains shown, fully murine, hybridoma-derived; also called 11F9) VH: DVQLQESGPGLVKPSQSLSLTCTVTGYSITSDCAWNWIRQFPGNKLEWMGYINYSGSTNYNPSLKSRISITRDTSQNHFFLQLSSVTAEDTATYYCTRSVNYYGNSFAVGYWGQGISVTVSS VL: DIVMSQSPATLSVTPGDRVSLSCRTSQDIGDYLHWYRQKSHESPRLLIKYTSQSVSGIPSRFSGSGSGSDFTLSINTVEPEDVGLYYCQNGHSFPLTFGTGTRLELK , write its AT inhibition (kinh %).
Key: 111
